Test: Compound pharmacokinetics in mice
Type: in vivo
Conditions: male ICR mice, oral gavage 10 mg/kg, plasma
Give Cl_pred for every item shown.
Kindly answer with a numeric value in mL/min/kg, unit omitted.

Challenge: I would be grateful if you could share the reported Cl_pred for CN1CCN(c2ccc(Nc3ncc4cnn(-c5ccc6c(c5)C(C)(O)CO6)c4n3)cc2)CC1 (stereo not shown) .
Response given: 405

Challenge: I would be grateful if you could share the reported Cl_pred for CN1CCN(c2ccc(Nc3ncc4cnn(-c5ccnc(N=S(C)(C)=O)c5)c4n3)cc2)CC1 .
Response given: 230

Challenge: I would be grateful if you could share the reported Cl_pred for CN1CCN(c2ccc(Nc3ncc4cnn(-c5cccc(N=S(C)(C)=O)n5)c4n3)cc2)CC1 .
Response given: 658

Challenge: I would be grateful if you could share the reported Cl_pred for C=CCn1c(=O)c2cnc(Nc3ccc(N4CCN(C)CC4)cc3)nc2n1-c1cccc(C(C)(C)O)n1 [AZD-1775, reference compound] .
Response given: 347

###

System: H1299 cells
Assay: Anti-proliferative effect by Cell Titer-Glo, H1299
Assay type: cell-based
Details: Homo sapiens, NCI-H1299, 72 h; H1299 cells, 3 days, Cell Titer-Glo; read-out: IC50 measured value H1299
pIC50: −log10 of the molar value.
Give pIC50 for every item shown.

Challenge: I would be grateful if you could share the reported pIC50 for CN1CCN(c2ccc(Nc3ncc4cnn(-c5ccc6nncn6c5)c4n3)cc2)CC1 .
Response given: 4.70 to 5.30

Challenge: I would be grateful if you could share the reported pIC50 for CN1CCN(c2ccc(Nc3ncc4cnn(-c5cc(C(C)(C)O)ccn5)c4n3)cc2)CC1 .
Response given: 6.00 to 7.00

Challenge: I would be grateful if you could share the reported pIC50 for CN1CCC2(CC1)CCN(c1ccc(Nc3ncc4cnn(-c5cccc(N=S(C)(C)=O)n5)c4n3)cc1)CC2 .
Response given: 6.00 to 7.00

Challenge: I would be grateful if you could share the reported pIC50 for CN1CCN(c2ccc(Nc3ncc4cnn(-c5ccnc(N=S(C)(C)=O)c5)c4n3)cc2)CC1 .
Response given: 4.70 to 5.30

Challenge: I would be grateful if you could share the reported pIC50 for CN1CCC(c2ccc(Nc3ncc4cnn(-c5cccc(N=S(C)(C)=O)n5)c4n3)cc2)CC1 .
Response given: 5.30 to 6.00

Challenge: I would be grateful if you could share the reported pIC50 for CCC1(O)CCc2ccc(-n3ncc4cnc(Nc5ccc(N6CCN(C)CC6)cc5)nc43)nc21 (centres unmarked) .
Response given: 5.30 to 6.00

Challenge: I would be grateful if you could share the reported pIC50 for CN1CCN(c2ccc(Nc3ncc4cnn(-c5ccc6ccncc6c5)c4n3)cc2)CC1 .
Response given: 5.30 to 6.00

Challenge: I would be grateful if you could share the reported pIC50 for COc1cc(N2CCN(C)CC2)ccc1Nc1ncc2cnn(-c3cccc(N=S(C)(C)=O)n3)c2n1 .
Response given: 4.70 to 5.30

###

Test: Compound pharmacokinetics in mice
Format: in vivo
Conditions: mouse; male ICR mice, oral gavage 10 mg/kg, plasma; read-out: T½ (converted)
Give half-life for every item shown.
Kindly answer with a numeric value in h, unit omitted.

Challenge: I would be grateful if you could share the reported half-life for CN1CCN(c2ccc(Nc3ncc4cnn(-c5ccc6c(c5)C(C)(O)CO6)c4n3)cc2)CC1 (stereo not shown) [Compound 40] .
Response given: 0.7

Challenge: I would be grateful if you could share the reported half-life for C=CCn1c(=O)c2cnc(Nc3ccc(N4CCN(C)CC4)cc3)nc2n1-c1cccc(C(C)(C)O)n1 [AZD-1775, reference compound] .
Response given: 0.77

Challenge: I would be grateful if you could share the reported half-life for CN1CCN(c2ccc(Nc3ncc4cnn(-c5ccnc(N=S(C)(C)=O)c5)c4n3)cc2)CC1 [Compound 28] .
Response given: 1.78

Challenge: I would be grateful if you could share the reported half-life for CN1CCN(c2ccc(Nc3ncc4cnn(-c5cccc(N=S(C)(C)=O)n5)c4n3)cc2)CC1 [Compound 1] .
Response given: 1.71
